Recorded GI50 by entry
# System: SK-OV-3
# protocol text: NCI tumour cell line growth inhibition, 48 h
Activity calls are given as the source filed them. Cut-off read from the data, not from the text of the source: active = GI50 up to about 1.1 µM and inactive = higher.

Would you please look over these solved cases?
[[record]]
molecule = "C=C1C2CC(OC(C)=O)C3(C)C(c4ccoc4)OC(=O)[C@@H](O)[C@]13OC1C[C@H](OC(C)=O)C(C)(C)[C@H](CC(=O)OC)[C@]12C (stereo partly drawn)"
target_system = "SK-OV-3"
recorded_endpoint = "GI50"
reported_result = "> 100 µM (inactive)"

[[record]]
molecule = "CC(C)(C)c1cc(C2c3cc4c(cc3OC(O)(CO)C2C(=O)O)OCO4)cc(C(C)(C)C)c1O.CC(C)(C)c1cc(C2c3cc4c(cc3OC3(O)COC(=O)C23)OCO4)cc(C(C)(C)C)c1O (stereo not drawn)"
target_system = "SK-OV-3"
recorded_endpoint = "GI50"
reported_result = "27.3 µM (inactive)"

[[record]]
molecule = "O=Nc1c(-c2cccc([N+](=O)[O-])c2)nc2cnccn12"
target_system = "SK-OV-3"
recorded_endpoint = "GI50"
reported_result = "68.7 µM (inactive)"

[[record]]
molecule = "CCOC(=O)C(SCCO)C(C(=O)OCC)n1cnc2c(N)ncnc21 (stereo not drawn)"
target_system = "SK-OV-3"
recorded_endpoint = "GI50"
reported_result = "54.7 µM (inactive)"

[[record]]
molecule = "Cc1c(C(=O)Nc2ccccc2)nnn1-c1ccnc2cc(C(F)(F)F)ccc12"
target_system = "SK-OV-3"
recorded_endpoint = "GI50"
reported_result = "> 100 µM (inactive)"

[[record]]
molecule = "C[N+](C)(C)CC(=O)N/N=C(\\C(=O)Nc1ccc(Cl)cc1)C1C(=O)N(c2ccccc2)N=C1N (stereo not drawn)"
target_system = "SK-OV-3"
recorded_endpoint = "GI50"
reported_result = "> 100 µM (inactive)"

[[record]]
molecule = "CN(C)CCNCc1ccc2c(-c3ccccc3)nc3cc(Cl)c(Cl)cc3n12"
target_system = "SK-OV-3"
recorded_endpoint = "GI50"
reported_result = "6.43 µM (inactive)"


# input for lookup
Per the records, this molecule ( Cc1ccc(S(=O)(=O)CNC(=O)C(O)(O)C(F)(F)F)cc1 ) has GI50 equal to > 100 µM (inactive)

----------
# Tested on: OVCAR-5
# protocol text: NCI tumour cell line growth inhibition, 48 h
Calls of active or inactive are those of the source. Rule as the data show it: active = GI50 up to about 1.1 µM and inactive = higher.
recorded endpoint: GI50

Would you please look over these solved cases?
[[record]]
compound = "NC(=S)N/N=C1/C(=O)N(c2ccc(Cl)cc2Cl)C(=O)C(=O)C1c1nc2ccccc2s1 (stereo not given)"
reported_result = "> 100 µM (inactive)"

[[record]]
compound = "COc1cc2c(cc1OC)C1Cc3ccccc3CN1CCC2 (stereo not given)"
reported_result = "> 100 µM (inactive)"

[[record]]
compound = "CC1=CC(=O)/C(=C/NC(=S)C(N)=S)C(=O)O1"
reported_result = "> 100 µM (inactive)"

[[record]]
compound = "CC(C)/C(Cl)=N\\OC(=O)Nc1ccccc1F"
reported_result = "18.5 µM (inactive)"

[[record]]
compound = "NCCCCCCn1c(-c2ccc(Br)cc2)cs/c1=N\\c1ccccc1"
reported_result = "12.2 µM (inactive)"

[[record]]
compound = "CCCCCCCCCc1cc(-c2ccc(C=O)s2)sc1-c1ccc(C=O)s1"
reported_result = "29.5 µM (inactive)"


# input for lookup
Value (GI50, OVCAR-5) for record C[N+](C)(C)CC(=O)N/N=C(\C(=O)Nc1ccc(Cl)cc1)C1C(=O)N(c2ccccc2)N=C1N (stereo not given) = > 100 µM (inactive)
